Source of measurements: patent US20140087945A1

# System: a plurality of harmful plants
# EXPERIMENT_NOTES: Herbicidal post-emergence action, greenhouse pot test
# Assay type: in vivo
# MEASUREMENT_PARAMETERS: post-emergence method
PARAMETER_MEASURED: herbicidal activity against a plurality of harmful plants

{"MOLECULE": "COC(=O)CC(c1c(F)cccc1F)C(C#N)c1ccc(F)c(Br)c1 (mixture of isomers)", "RESULT": "good herbicidal activity"}
{"MOLECULE": "COC(=O)C[C@@H](c1c(F)cccc1F)[C@@H](C#N)c1ccc(F)c(C#N)c1", "RESULT": "good herbicidal activity"}
{"MOLECULE": "COC(=O)CC(c1c(F)cccc1F)C(C#N)c1ccc(C(F)(F)F)c(F)c1 (mixture of isomers)", "RESULT": "good herbicidal activity"}
{"MOLECULE": "COC(=O)C[C@@H](c1c(F)cccc1F)[C@@H](C#N)c1ccc(F)c(Br)c1", "RESULT": "good herbicidal activity"}

---

# System: a plurality of harmful plants
# EXPERIMENT_NOTES: Herbicidal post-emergence action, greenhouse pot test
# Type: in vivo
# MEASUREMENT_PARAMETERS: post-emergence method
PARAMETER_MEASURED: herbicidal activity against a plurality of harmful plants

Look over these answered cases.
{"COMPOUND": "COC(=O)CC(c1c(F)cccc1F)C(C#N)c1ccc(F)cc1 (mixture of isomers)", "RESULT": "good herbicidal activity"}
{"COMPOUND": "CCOC(=O)C[C@@H](c1c(F)cccc1F)[C@@H](C#N)c1ccc(F)c(F)c1", "RESULT": "good herbicidal activity"}
{"COMPOUND": "COC(=O)CC(c1c(F)cccc1F)C(C#N)c1ccc(OC)c(OC)c1 (mixture of isomers)", "RESULT": "good herbicidal activity"}
{"COMPOUND": "COC(=O)CC(c1c(F)cccc1F)C(C#N)c1cccc(I)c1 (mixture of isomers)", "RESULT": "good herbicidal activity"}
{"COMPOUND": "N#CC(c1cc(F)cc(C(F)(F)F)c1)C(CC(=O)O)c1c(F)cccc1F (mixture of isomers)", "RESULT": "good herbicidal activity"}
{"COMPOUND": "COC(=O)CC(c1c(F)cccc1F)C(C#N)c1ccccc1OC (mixture of isomers)", "RESULT": "good herbicidal activity"}
{"COMPOUND": "COC(=O)CC(c1c(F)cccc1F)C(C#N)c1ccc(OC)cc1 (mixture of isomers)", "RESULT": "good herbicidal activity"}
{"COMPOUND": "COC(=O)C[C@@H](c1c(F)cccc1F)[C@@H](C#N)c1ccc(F)c(F)c1", "RESULT": "good herbicidal activity"}

Now for a further compound.
Inquiry: Give the measured herbicidal activity against a plurality of harmful plants of COC(=O)CC(c1c(F)cccc1F)C(C#N)c1ccc(Cl)c(Cl)c1 (mixture of isomers) .
Reply text: good herbicidal activity
